Ref: paper PMC9879440

RUN DESCRIPTION: Pharmacokinetic analysis in mouse plasma and brain after a single i.p. injection
Type: in vivo
MEASUREMENT PARAMETERS: both sexes, plasma, intraperitoneal, wildtype mice P21-28, 10 mg/kg i.p., 120 min, n = 4, read-out: Plasma concentration, average
EXPERIMENTAL READOUT: concentration at 120 min (ng/mL)
Answer format: numeric, ng/mL implied, no suffix.

Request: Give reported concentration at 120 min value for COc1ccc(CNCCC(c2ccccc2)c2ccc3c(c2)OCO3)cc1 (stereo not shown) [CID2921524]
Response: 1090

---

RUN DESCRIPTION: Pharmacokinetic analysis in mouse plasma and brain after a single i.p. injection
Assay type: in vivo
MEASUREMENT PARAMETERS: both sexes, brain, intraperitoneal, wildtype mice P21-28, 10 mg/kg i.p., 15 min, n = 4, read-out: Brain concentration, average
EXPERIMENTAL READOUT: concentration at 15 min

Request: Name the recorded concentration at 15 min of the molecule listed here: COc1ccc(CNCCC(c2ccccc2)c2ccc3c(c2)OCO3)cc1 (stereo not shown) [CID2921524]
Response: 1820 ng/g
